Target: UniProtKB Q86W56
Assay: PARG in vitro enzyme assay (TR-FRET)
Conditions: read-out: PARG_EC50_ENZYME
MEASUREMENT_TYPE: pEC50
Give bare numbers, as −log10 of the molar value.

C#CCn1c(=O)n(-c2nnc(C(F)F)s2)c2cc(S(=O)(=O)NC3(CF)CC3)ccc21 :: 6.82
Cc1nnc(-n2c(=O)[nH]c3cc(F)c(S(=O)(=O)NC4(C)CC4)cc32)o1 :: 5.84
Cc1nnc(-n2c(=O)n(CCN3CCCC3)c3ccc(S(=O)(=O)NC4(C)CC4)cc32)o1 :: 5.42
COCCn1c(=O)n(-c2nnc(C(F)F)s2)c2cc(S(=O)(=O)NC3(C#N)CC3)ccc21 :: 6.59
CC1(NS(=O)(=O)c2cc3c(cc2F)n(CCF)c(=O)n3-c2nnc(C(F)F)o2)CC1 :: 6.40
Cn1c(=O)n(C(=O)C2CCCCC2)c2cc(S(=O)(=O)NC3(C)CC3)ccc21 :: 6.45
CN1CCN(CC(=O)N2CCc3ccc(S(=O)(=O)NC4(C)CC4)cc32)C1=O :: 5.05
CC(=O)c1cn(-c2nnc(C)s2)c2cc(S(=O)(=O)NC3(C)CC3)ccc12 :: 6.23
Cc1nnc(-n2c(=O)n(CCN3CCOCC3)c3ccc(S(=O)(=O)NC4(C)CC4)cc32)s1 :: 6.56
Cn1c(=O)n(-c2nnc(C(F)F)o2)c2cc(S(=O)(=O)NC3(C)CC3)ccc21 :: 6.00

Here are 6 compounds. What values of pEC50 were reported for them?
1. Cn1c(=O)n(-c2nnc(C(F)F)o2)c2cc(S(=O)(=O)NC3(CF)CC3)c(F)cc21
2. CC(=O)Nc1ccc(Cn2c(=O)n(C)c3cc(S(=O)(=O)NC4(C)CC4)ccc32)cc1
3. Cn1nccc1Cn1c(=O)n(C)c2cc(S(=O)(=O)NC3(C)CC3)ccc21
4. Cn1c(=O)n(-c2ccccc2)c2ccc(S(=O)(=O)NC3(C)CC3)cc21
5. Cc1nnc(-n2cc(C(=O)c3ccc(F)cc3)c3ccc(S(=O)(=O)NC4(C)CC4)cc32)s1
6. Cc1nnc(-n2c(C)nc3ccc(S(=O)(=O)NC4(C)CC4)cc32)s1

[6.46, 5.38, 5.07, 5.25, 6.58, 5.82]

----------
Target: UniProtKB Q9NX46
Sequence (Q9NX46 whole entry): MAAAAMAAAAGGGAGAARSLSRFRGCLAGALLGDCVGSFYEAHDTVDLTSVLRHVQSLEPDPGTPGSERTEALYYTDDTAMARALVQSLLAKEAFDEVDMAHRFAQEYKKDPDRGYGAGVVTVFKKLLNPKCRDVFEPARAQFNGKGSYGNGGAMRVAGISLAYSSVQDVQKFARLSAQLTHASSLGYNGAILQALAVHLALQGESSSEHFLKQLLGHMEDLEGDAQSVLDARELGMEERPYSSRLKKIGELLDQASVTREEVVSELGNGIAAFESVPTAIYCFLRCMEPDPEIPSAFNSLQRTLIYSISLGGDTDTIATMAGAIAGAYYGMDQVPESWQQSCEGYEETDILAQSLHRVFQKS
Field: IC50. Provide a value for each of the compounds that follow.

CCn1c(=O)n(-c2nnc(C(F)F)s2)c2cc(S(=O)(=O)NC3(CF)CC3)c(F)cc21 :: > 150 µM
Cn1c(=O)n(-c2nnc(C(F)F)s2)c2cc(S(=O)(=O)NC3(C)CC3)ccc21 :: > 100 µM
Cc1nnc(-n2c(=O)n(CC3CC3)c3ccc(S(=O)(=O)NC4(C)CC4)cc32)s1 :: > 100 µM
CCn1c(=O)n(-c2nnc(C(F)F)o2)c2cc(S(=O)(=O)NC3(CF)CC3)c(F)cc21 :: > 150 µM
C#CCn1c(=O)n(-c2nnc(C(F)F)s2)c2cc(S(=O)(=O)NC3(CF)CC3)c(F)cc21 :: > 150 µM
Cc1cc(Cc2nc3ccc(S(=O)(=O)NC4(C)CC4)cc3n2-c2nnc(C)s2)on1 :: > 150 µM

# get_value(readout='IC50', item= Cc1nc(C)c(Cn2c(=O)n(-c3ncns3)c3cc(S(=O)(=O)NC4(C)CC4)ccc32)s1 )
> 100 µM

----------
Target: PARG in HeLa cell line (Homo sapiens (Human))
Assay: PARG cell assay (nuclear PAR chains after MMS, immunofluorescence)
Assay type: cell-based
Conditions: HeLa cells, MMS 50 μg/mL; read-out: PARG Cell IC50 Geomean
MEASUREMENT_TYPE: pIC50
Give bare numbers, as −log10 of the molar value.

// solved cases for pIC50 follow
Cc1nnc(-n2c(=O)n(C)c3cc(F)c(S(=O)(=O)NC4(C)CC4)cc32)s1 [Example 116] :: 6.71
Cc1nnc(-n2c(=O)n(Cc3sc(C)nc3C)c3ccc(S(=O)(=O)NC4(C)CC4)cc32)o1 [Example 99] :: 6.47

Okay, here is my list. What is pIC50 for each of these?
1. Cc1nnc(-n2cc(Cc3sc(C)nc3C)c3ccc(S(=O)(=O)NC4(C)CC4)cc32)s1 [Example 129]
2. CCn1c(=O)n(-c2nnc(C(F)F)s2)c2cc(S(=O)(=O)NC3(CF)CC3)c(F)cc21 [Example 208]

6.60
7.54

----------
Please provide measured IC50 for the entries that follow.
Biological target: PARG in HeLa cell line (Homo sapiens (Human))
Assay: PARG cell assay (nuclear PAR chains after MMS, immunofluorescence)
Assay type: cell-based
Details: HeLa cells, MMS 50 μg/mL; read-out: PARG Cell IC50 Geomean
One number for each entry, in nM.

Illustrative cases are given below, each with its answer.
NC(=O)Cn1c(=O)n(-c2nnc(C(F)F)s2)c2cc(S(=O)(=O)NC3(CF)CC3)c(F)cc21 :: 1520
Cc1nnc(-n2c(=O)n(CCCN(C)C)c3ccc(S(=O)(=O)NC4(C)CC4)cc32)s1 :: 371
Cc1nsc(-n2c(=O)n(C)c3ccc(S(=O)(=O)NC4(C)CC4)cc32)n1 :: 1790

Which IC50 is reported with PARG in HeLa cell line (Homo sapiens (Human)) for this entry: Cc1nnc(-n2c(=O)[nH]c3cc(F)c(S(=O)(=O)NC4(C)CC4)cc32)o1 ?
11700

----------
Field: pEC50. Provide a value for each of the compounds that follow.
Target: Human Full Length PARG (Homo sapiens (Human))
Sequence (Q86W56 whole entry): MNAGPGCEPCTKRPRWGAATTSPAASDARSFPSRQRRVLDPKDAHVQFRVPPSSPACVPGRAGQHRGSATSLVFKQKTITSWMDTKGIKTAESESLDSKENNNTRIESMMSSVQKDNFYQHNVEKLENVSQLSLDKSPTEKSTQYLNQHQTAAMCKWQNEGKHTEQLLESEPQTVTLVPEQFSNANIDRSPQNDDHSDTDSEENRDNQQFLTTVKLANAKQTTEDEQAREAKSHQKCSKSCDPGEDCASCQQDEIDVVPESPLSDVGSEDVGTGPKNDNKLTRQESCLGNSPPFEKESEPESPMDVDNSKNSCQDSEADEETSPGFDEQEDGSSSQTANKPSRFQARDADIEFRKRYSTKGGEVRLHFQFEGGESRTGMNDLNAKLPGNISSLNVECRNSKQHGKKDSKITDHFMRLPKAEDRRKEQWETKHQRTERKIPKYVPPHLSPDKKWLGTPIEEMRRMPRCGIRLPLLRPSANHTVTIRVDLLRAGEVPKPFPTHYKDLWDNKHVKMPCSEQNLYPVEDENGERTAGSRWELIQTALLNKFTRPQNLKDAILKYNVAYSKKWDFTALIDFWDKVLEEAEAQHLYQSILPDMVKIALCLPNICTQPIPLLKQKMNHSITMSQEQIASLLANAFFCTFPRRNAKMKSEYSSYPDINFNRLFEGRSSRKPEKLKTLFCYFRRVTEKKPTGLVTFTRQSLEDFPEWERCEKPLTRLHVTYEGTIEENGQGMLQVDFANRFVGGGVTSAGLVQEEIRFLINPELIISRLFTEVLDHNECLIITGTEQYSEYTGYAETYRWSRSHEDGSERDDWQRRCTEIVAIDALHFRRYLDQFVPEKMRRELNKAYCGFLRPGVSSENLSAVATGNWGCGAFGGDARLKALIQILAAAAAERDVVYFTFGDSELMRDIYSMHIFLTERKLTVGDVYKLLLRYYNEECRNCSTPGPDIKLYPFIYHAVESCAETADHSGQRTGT
Experiment: PARG in vitro enzyme assay (TR-FRET)
Conditions: read-out: PARG_EC50_ENZYME
One number for each entry, as −log10 of the molar value.

Known results for compounds:
Cc1ncc(Cn2c(=O)n(-c3nnc(C)s3)c3cc(S(=O)(=O)NC4(C)CC4)ccc32)s1 [Example 83] :: 6.82
Cn1c(=O)n(CC(C)(C)C)c2ccc(S(=O)(=O)NC3(C)CC3)cc21 [Example 15] :: 5.18
COCCCn1c(=O)n(-c2nnc(C)o2)c2cc(S(=O)(=O)NC3(C)CC3)ccc21 [Example 150] :: 6.04

For each of the items listed, what is its pEC50?
1. COCCCn1c(=O)n(-c2nc(C)ns2)c2cc(S(=O)(=O)NC3(CF)CC3)ccc21 [Example 185]
2. Cc1nnc(-n2nc(Cc3ccc(F)cc3)c3ccc(S(=O)(=O)NC4(C)CC4)cc32)s1 [Example 146]
3. Cc1nnc(-n2c(=O)n(CCN(C)C)c3ccc(S(=O)(=O)NC4(C)CC4)cc32)o1 [Example 137]
4. Cc1nnc(-n2c(=O)n(CCCN(C)C)c3ccc(S(=O)(=O)NC4(C)CC4)cc32)s1 [Example 135]
5. Cc1nnc(-n2c(=O)[nH]c3ccc(S(=O)(=O)NC4(C#N)CC4)cc32)s1 [Example 157]

[5.42, 5.92, 5.64, 6.29, 5.93]

Go through the items and report each one's pEC50.
1. Cc1nnc(-n2c(=O)n(C)c3ccc(S(=O)(=O)NC4(C)CC4)cc32)o1 [Example 189]
2. Cn1c(=O)n(-c2nnc(C(F)F)s2)c2cc(S(=O)(=O)NC3(C)CC3)ccc21 [Example 79]
3. CNC(=O)CCc1cnc(-n2c(=O)n(C)c3ccc(S(=O)(=O)NC4(C)CC4)cc32)s1 [Example 74]

1: 5.75; 2: 6.19; 3: 5.01

----------
Molecular target: PARG in HeLa cell line (Homo sapiens (Human), UniProt Q86W56)
Sequence (Q86W56 whole entry): as the sequence (Q86W56 whole entry) above
Assay: PARG cell assay (nuclear PAR chains after MMS, immunofluorescence)
Assay type: cell-based
Details: HeLa cells, MMS 50 μg/mL; read-out: PARG Cell IC50 Geomean
pIC50: −log10 of the molar value.
Label T when pIC50 is at or above 7; otherwise label F.

Please review the following examples before continuing.
Cc1nnc(-n2c(=O)n(CCF)c3cc(F)c(S(=O)(=O)NC4(C)CC4)cc32)o1 :: F
COCCn1c(=O)n(-c2ncns2)c2cc(S(=O)(=O)NC3(CF)CC3)ccc21 :: F
COCCn1c(=O)n(-c2nnc(C(F)F)s2)c2cc(S(=O)(=O)NC3(CF)CC3)c(F)cc21 :: T
COCCn1c(=O)n(-c2nnc(C(F)F)s2)c2cc(S(=O)(=O)NC3(C)CC3)ccc21 :: T

Then there is this compound:
Is pIC50 for Cc1nsc(-n2c(=O)n(CC#N)c3ccc(S(=O)(=O)NC4(CF)CC4)cc32)n1 at or above 7?
F

----------
Consider the following molecules; for each one, report its log10 of EC50.
Biological target: UniProt:Q86W56
Assay: PARG in vitro enzyme assay (TR-FRET)
Conditions: read-out: PARG_EC50_ENZYME
Log scale reminder: EC50 in nM, then log10 taken.

Example entries and their recorded answers appear below.
Cn1c(=O)n(Cc2ccc(C#N)c(F)c2)c2ccc(S(=O)(=O)NC3(C)CC3)cc21 :: 3.67
Cc1cc(Cn2c(=O)n(-c3nnc(C(F)F)s3)c3cc(S(=O)(=O)NC4(C#N)CC4)ccc32)n(C)n1 :: 2.37
Cn1c(=O)n(CC2CCC2)c2ccc(S(=O)(=O)NC3(C)CC3)cc21 :: 3.67
Cn1c(=O)n(Cc2cc(Cl)cc(Cl)c2)c2ccc(S(=O)(=O)NC3(C)CC3)cc21 :: 3.89
Cc1cc(Cn2c(=O)n(-c3nnc(C(F)F)s3)c3cc(S(=O)(=O)NC4(CF)CC4)ccc32)n(C)n1 :: 2.31

For each listed entry, give its log10 of EC50.
1. Cn1c(=O)n(CC2(C)COC2)c2ccc(S(=O)(=O)NC3(C)CC3)cc21
2. Cc1nc(C)c(Cn2c(=O)n(-c3ncns3)c3cc(S(=O)(=O)NC4(C)CC4)ccc32)s1
3. Cc1cc(Cn2c(=O)n(-c3nnc(C)s3)c3cc(S(=O)(=O)NC4(C)CC4)ccc32)n(C)n1

3.93
1.60
2.56
